I'd appreciate it if you could supply abundance fitness values for the items below.
B1: E3 ubiquitin-protein ligase NEDD4-like, residues 539 to 589; numbered along this chain, Q96PU5 (parent)
chain: KTSLNPNDLGPLPPGWEERIHLDGRTFYIDHNSKITQWEDPRLQNPAITGP

variants of: B1; experiment: abundance fitness (aPCA) (normalised: wild type 0, dead -1); higher = more abundant; growth selection in yeast, the domain comes from the species named; conditions: Homo sapiens
One number for each entry.

// known answers, use as guide
Mutant designation: P41D
abundance fitness: -0.98

Mutant designation: L12Y
abundance fitness: -0.788

Mutant designation: T26C
abundance fitness: -0.065

Mutant designation: I35N
abundance fitness: -0.042

Mutant designation: P11N
abundance fitness: -0.177

List abundance fitness for every entry below, keeping the order given.
1. R42H
2. E17L
3. P6H
4. L4I
5. L22Q
6. P14K
7. E17V

result:
1: -0.67; 2: -0.856; 3: -0.237; 4: -0.136; 5: 0.152; 6: -0.044; 7: -0.477

Lab note: each variant below needs its abundance fitness filled in.
1. S33E
2. R42Y
3. K1L
4. P14F
5. D30G
6. T36Q
7. Y28T

result:
1: -0.067; 2: -1.05; 3: -0.313; 4: -0.066; 5: -0.617; 6: -0.336; 7: -0.626

Please state abundance fitness for every variant in the list that follows.
1. D8M
2. N5V
3. P11V

result:
[-0.307, -0.075, -0.221]
